Molecular target: T1, human PACAP27 (human, C-terminal leucine is amidated; 125I-labelled in Example 10)
T1 peptide: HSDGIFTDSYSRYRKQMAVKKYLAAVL
Test: SPR, Ab immobilised
From the text: [The procedure below names another target; the source says it served here with some conditions changed.] Binding affinities of monoclonal antibodies for human PACAP were estimated using SPR on the PROTEON™ XPR36 (Bio-Rad, Hercules, Calif.). Antibody was immobilized to the surface of general amine coupling (“GLC” or “GLM”) Chips (Bio-Rad, Hercules, Calif.). […]
Entries and their measured pKd follow.
# log scale: pKd equals minus log10 of the concentration in mol/L

These recorded examples may help you get a feel for the data.
INSERT INTO assay_data (binder, reported_result) VALUES
  ('anti-PACAP antibody Ab9 (antibody, human IgG1, kappa, N297A, V domains shown, full-length rabbit/human chimeric antibody) VH: EQSGGGAEGGLVKPGGSLKLSCKASGFTISRDYWICWVRQAPGKGLEWIGCISAGGGSTDYANWVNGRFTLSRDIDQSTGCLQLNSLTDADTAMYYCAGNLEIWGQGTLVTVSS VL: AQVLTQTPSSVSAAVGGTVTINCQSSPSIYSGAFLSWFQQKPGQPPKFLIYEASKLASGVPSRFSGSGSGTQFTLTISDVQCDDAATYYCLGFYDCSSVDCHAFGGGTEVVVKR', 9.47),
  ('anti-PACAP antibody Ab11 (antibody, human IgG1, kappa, N297A, V domains shown, full-length rabbit/human chimeric antibody) VH: QSVEESGGRLVTPGTPLTLTCTASGFSLSRYAMGWVRQAPGKGLEWIGDISTYGTTDYASWVNGRFTISRTSTTVTLKMTSLTTEDTATYFCARDYWLSLWGQGTLVTVSS VL: AAVLTQTPSPVSAAVGGTVTIKCQSSQSVYDNNALAWYQQKPGQPPKLLIYAASNLASGVPDRFSGSGSGTQFTLTISGVQCDDAATYYCLGGYDDAADNAFGGGTEVVVKR', 9.38);

Let us examine a further case.
// query I am curious: what pKd value has been reported for anti-PACAP antibody Ab19 (antibody, human IgG1, kappa, N297A, V domains shown, full-length rabbit/human chimeric antibody) VH: QSVEASGGRLVTPGTPLTLTCTVSGFSLSSATMNWVRQAPGKGLEWIGLIGGNDERYYASWAKGRFTISKTSSTTVDLKMTSPTTEDTATYFCARGGGEFFIWGPGTLVTVSS VL: AQVLTQTPSSVSAAVGGTVTINCQSSESVYTNDRLSWYQQKPGQPPKLLIYEASKLASGVPPRFSGSGSGTQFTLTISDLECDDAATYYCAGAYSTSIHGFGGGTEVVVKR ?
// result 9.51
